# log10 of MIC95 values compiled below
tested on: Mycolicibacterium smegmatis; assay: Antimycobacterial activity against Mycobacterium smegmatis mc2155 after 48 hrs by microdilution resazurin assay; assay type: functional; settings: str. MC2 155, 48 h
Please note: log10 values; quantity MIC95; unit µg/mL.

Worked cases, log10 of MIC95 given:
CC1(C)C=Cc2cc3oc4ccccc4c3c(Br)c2O1 : 2.08
CC1(C)CCc2cc(C(=O)c3ccccc3)c(O)cc2O1 : 0.60
CC1(C)C=Cc2cc(C(O)c3ccccc3)ccc2O1 (stereo not drawn) : 1.30
Oc1ccc2oc3ccc(O)cc3c2c1 : 1.18
CC1(C)C=Cc2cc3oc4ccccc4c3cc2O1 : 1.30

Q) Dear colleague, please send me the reported log10 of MIC95 for CC1(C)C=Cc2cc(C(=O)c3ccccc3)ccc2O1 when you can.
A) 1.30

Q) # return recorded log10 of MIC95 for input CC1(C)CCc2cc3oc4ccccc4c3cc2O1
A) 1.60

Q) Give the value of log10 of MIC95 reported for the following: CC1(C)C=Cc2c(ccc3oc4ccccc4c23)O1
A) 1.00

====

test system: Mycobacterium tuberculosis; experiment: Antimycobacterial activity against Mycobacterium tuberculosis H37Rv after 6 days by microdilution resazurin assay; format: functional; conditions: 144 h
Lab note: anything with MIC95 below 30 µg/mL is marked class 1; values at 30 µg/mL or higher are marked class 0.

Here's what some known entries look like.
CC(=O)c1ccc2oc3ccc(O)cc3c2c1 : class 1
CC1(C)C=Cc2cc(C(=O)c3ccccc3)ccc2O1 : class 0
C#CC(C)(C)Oc1ccc2oc3c(c2c1)CCCC3 : class 0
CC1(C)CCc2c(c(Br)cc3oc4ccccc4c23)O1 : class 0

Q) Decide: MIC95 of CC1(C)C=Cc2cc3oc4ccccc4c3cc2O1 strictly below 30 µg/mL?
A) class 0

Q) MIC95 under 30 µg/mL? Item: CC1(C)C=Cc2cc(C(O)c3cccnc3)ccc2O1 (stereo not drawn)
A) class 0

Q) I'd appreciate it if you could check whether CC1(C)C=Cc2cc(C(O)c3ccccc3)ccc2O1 (stereo not drawn) has MIC95 smaller than 30 µg/mL.
A) class 1

Q) Problem: For the molecule O=C(c1ccc(O)cc1)c1ccc(O)cc1 , is MIC95 under 30 µg/mL?
A) class 0

Q) Could you please tell me whether MIC95 recorded for Oc1ccc2oc3ccccc3c2c1 is less than 30 µg/mL?
A) class 1

Q) Take the molecule CC(=O)c1cc2oc3ccccc3c2c2c1OC(C(C)C)C2 (stereo not drawn) and say whether its MIC95 is less than 30 µg/mL.
A) class 0

Q) Is the reported MIC95 for C#CC(C)(C)Oc1ccc2oc3ccc(C(C)=O)cc3c2c1 strictly below 30 µg/mL?
A) class 0

Q) # strict comparison: is reported MIC95 < 30 µg/mL? input = C#CC(C)(C)Oc1cccc(-c2ccccc2)c1
A) class 0

Q) Problem: For the molecule Oc1ccc2oc3c(c2c1)CCCC3 , is MIC95 under 30 µg/mL?
A) class 0

Q) API: query returns whether the molecule falls strictly under 30 µg/mL in MIC95. Query: CC1(C)C=Cc2cc(-c3ccccc3)ccc2O1
A) class 0

Q) State whether 30 µg/mL exceeds MIC95 recorded for Oc1ccc2oc3ccc(O)cc3c2c1 .
A) class 1

Q) Lab log: compare recorded MIC95 with 30 µg/mL; is it strictly lower for CC(=O)c1cc2oc3ccccc3c2c2c1OC(C)(C)CC2 ?
A) class 0

====

Item-by-item account of MIC95
test system: Mycolicibacterium smegmatis; test: Antimycobacterial activity against Mycobacterium smegmatis mc2155 after 48 hrs by microdilution resazurin assay; type: functional; details: str. MC2 155, 48 h
Write the number in µg/mL without appending the unit.

These solved cases illustrate the format of a correct answer.
NNC(=O)c1ccncc1 [ISONIAZID] : 12
Oc1ccc2oc3c(c2c1)CCCC3 : 31

Consider now this further compound.
Q) Find the measured MIC95 of O=C(c1ccc(O)cc1)c1ccc(O)cc1 and report it.
A) 62

====

tested on: Mycolicibacterium smegmatis; experiment: Antimycobacterial activity against Mycobacterium smegmatis mc2155 after 48 hrs by microdilution resazurin assay; format: functional; settings: str. MC2 155, 48 h
Labelling: MIC95 reported below 30 µg/mL becomes fulfilled; at or above becomes not fulfilled.

Study these solved cases before continuing.
CC(=O)c1cc2oc3ccccc3c2c2c1OC(C(C)C)C2 (stereo not given) : not fulfilled
CC(=O)c1ccc2oc3ccc(C(C)=O)cc3c2c1 : fulfilled
CC1(C)CCc2c(ccc3oc4ccccc4c23)O1 : fulfilled
CC1(C)C=Cc2cc(C(O)c3cccnc3)ccc2O1 (stereo not given) : not fulfilled

Q) Say whether its MIC95 is strictly beneath 30 µg/mL. Entry: CC1(C)C=Cc2cc(C(=O)c3ccc(O)cc3)ccc2O1
A) not fulfilled

Q) Is it true that MIC95 reported for CC1(C)C=Cc2cc(Oc3ccccc3)ccc2O1 is less than 30 µg/mL?
A) not fulfilled

Q) Please check: MIC95 for C#CC(C)(C)Oc1cccc(-c2ccccc2)c1 , strictly under 30 µg/mL or not?
A) not fulfilled

Q) Is the reported MIC95 for CC1(C)CCc2cc(C(=O)c3ccccc3)ccc2O1 strictly below 30 µg/mL?
A) not fulfilled

Q) MIC95 under 30 µg/mL? Item: C#CC(C)(C)Oc1ccc2oc3ccc(C(C)=O)cc3c2c1
A) not fulfilled

Q) Say whether its MIC95 is strictly beneath 30 µg/mL. Entry: CC(=O)c1ccc2oc3ccc4c(c3c2c1)C=CC(C)(C)O4
A) not fulfilled

====

Recorded log10 of MIC95 by entry
test system: Mycobacterium tuberculosis; test: Antimycobacterial activity against Mycobacterium tuberculosis H37Rv after 6 days by microdilution resazurin assay; type: functional; settings: 144 h
Please note: log10 values; quantity MIC95; unit µg/mL.

Past entries and their recorded results:
CC1(C)CCc2c(ccc3oc4ccccc4c23)O1 : 1.00
CC(=O)c1ccc2oc3ccc(C(C)=O)cc3c2c1 : 1.00
NNC(=O)c1ccncc1 : -1.00

Q) Please list log10 of MIC95 recorded for the molecule CC1(C)C=Cc2c(ccc3oc4ccccc4c23)O1
A) 1.00

Q) Supply log10 of MIC95 value. Item: CC1(C)CCc2cc(C(=O)c3ccccc3)c(O)cc2O1
A) 1.79

Q) Consider the molecule CC1(C)CCc2cc(C(=O)c3ccccc3)ccc2O1 . State its measured log10 of MIC95.
A) 1.48

Q) Tell me measured log10 of MIC95 for CC1(C)C=Cc2cc(C(=O)c3ccc(O)cc3)ccc2O1 please.
A) 1.79

Q) Tell me log10 of MIC95 reported for CC1(C)C=Cc2c(ccc3oc4c(c23)CCCC4)O1
A) 2.08

====

tested on: Mycolicibacterium smegmatis; assay: Antimycobacterial activity against Mycobacterium smegmatis mc2155 after 48 hrs by microdilution resazurin assay; type: functional; conditions: str. MC2 155, 48 h
Known MIC95 of a selection of compounds

Example compounds with recorded MIC95:
C#CC(C)(C)Oc1ccc2oc3c(c2c1)CCCC3 : > 100 µg/mL
CC(=O)c1cc2oc3ccccc3c2c2c1OC(C)(C)CC2 : > 500 µg/mL
CC1(C)CCc2cc(Cc3ccccc3)ccc2O1 : > 500 µg/mL
C#CC(C)(C)Oc1ccc(-c2ccccc2)cc1 : > 100 µg/mL

Q) Give the reported value of MIC95 for this record: CC1(C)C=Cc2c(ccc3oc4c(c23)CCCC4)O1
A) > 500 µg/mL

====

tested on: Mycolicibacterium smegmatis; experiment: Antimycobacterial activity against Mycobacterium smegmatis mc2155 after 48 hrs by microdilution resazurin assay; format: functional; details: str. MC2 155, 48 h
Entries and their measured MIC95 follow.

Record excerpt, results attached:
CC1(C)C=Cc2cc(-c3ccccc3)ccc2O1 : > 500 µg/mL
CC1(C)CCc2c(c(Br)cc3oc4ccccc4c23)O1 : > 500 µg/mL
CC(=O)c1ccc2oc3ccc(O)cc3c2c1 : > 500 µg/mL

Attention now turns to another entry.
Q) Entry C#CC(C)(C)Oc1ccc(Oc2ccccc2)cc1 needs its MIC95 filled in; supply it.
A) > 100 µg/mL

====

test system: Mycobacterium tuberculosis; assay: Antimycobacterial activity against Mycobacterium tuberculosis H37Rv after 6 days by microdilution resazurin assay; assay type: functional; settings: 144 h
readoutLabel: MIC95

CC1(C)CCc2cc3oc4ccccc4c3cc2O1 : > 500 µg/mL
CC(=O)c1ccc2oc3ccc4c(c3c2c1)C=CC(C)(C)O4 : > 500 µg/mL
CC1(C)C=Cc2cc(Oc3ccccc3)ccc2O1 : > 500 µg/mL

Q) Look up and state reported MIC95 for C#CC(C)(C)Oc1ccc(-c2ccccc2)cc1
A) > 100 µg/mL

Q) For C#CC(C)(C)Oc1ccc(Oc2ccccc2)cc1 , write its MIC95.
A) > 100 µg/mL

Taken from ChEMBL document CHEMBL1139091.
